- System: SK-BR-3
- testSummary: Cytotoxicity against estrogen receptor-deficient human SKBR3 cells after 96 hrs by trypan blue exclusion assay
- Type: functional, cell-based
- conditionsUsed: SK-BR-3, 96 h
experimentalReadout: pIC50
Keep it numeric: pIC50 is minus log10 of the concentration in mol/L.

Look up pIC50 for this compound: COc1ccc(N/C=C\C(=O)c2cc(OC)c(OC)c(OC)c2Br)cc1O 6.52

====

- System: SNU-5
- testSummary: Cytotoxicity against human SNU5 cells after 96 hrs by trypan blue exclusion assay
- Assay type: functional, cell-based
- conditionsUsed: SNU-5, 96 h
experimentalReadout: pIC50
Keep it numeric: pIC50 is minus log10 of the concentration in mol/L.

Look up pIC50 for this compound: COc1ccc(N/C=C\C(=O)c2cc(OC)c(OC)c(OC)c2Br)cc1O 6.60

====

- Test system: HCT-15
- testSummary: Cytotoxicity against human HCT15 cells after 96 hrs by trypan blue exclusion assay
- Type: functional, cell-based
- conditionsUsed: HCT-15, 96 h
experimentalReadout: IC50 (nM)
Quick note: give the figure in nM, leave out the unit.

Look up IC50 for this compound: COc1ccc(N/C=C\C(=O)c2cc(OC)c(OC)c(OC)c2Br)cc1O 40

====

- System: BT-474
- testSummary: Cytotoxicity against human BT474 cells expressing estrogen receptor after 96 hrs by trypan blue exclusion assay
- Format: functional, cell-based
- conditionsUsed: BT-474, 96 h
experimentalReadout: IC50 (nM)
Quick note: give the figure in nM, leave out the unit.

Look up IC50 for this compound: COc1ccc(N/C=C\C(=O)c2cc(OC)c(OC)c(OC)c2Br)cc1O 100

====

- System: BT-20
- testSummary: Cytotoxicity against estrogen receptor-deficient human BT20 cells after 96 hrs by trypan blue exclusion assay
- Assay type: functional, cell-based
- conditionsUsed: BT-20, 96 h
experimentalReadout: IC50
Remember to put the unit after the number in your answer.

Look up IC50 for this molecule: COc1ccc(N/C=C\C(=O)c2cc(OC)c(OC)c(OC)c2Br)cc1O 750 nM
